# targetDesc: T1, human gastric inhibitory peptide receptor (GIPR) (human, UniProt P48546 22-466)
# T1 sequence (looked up): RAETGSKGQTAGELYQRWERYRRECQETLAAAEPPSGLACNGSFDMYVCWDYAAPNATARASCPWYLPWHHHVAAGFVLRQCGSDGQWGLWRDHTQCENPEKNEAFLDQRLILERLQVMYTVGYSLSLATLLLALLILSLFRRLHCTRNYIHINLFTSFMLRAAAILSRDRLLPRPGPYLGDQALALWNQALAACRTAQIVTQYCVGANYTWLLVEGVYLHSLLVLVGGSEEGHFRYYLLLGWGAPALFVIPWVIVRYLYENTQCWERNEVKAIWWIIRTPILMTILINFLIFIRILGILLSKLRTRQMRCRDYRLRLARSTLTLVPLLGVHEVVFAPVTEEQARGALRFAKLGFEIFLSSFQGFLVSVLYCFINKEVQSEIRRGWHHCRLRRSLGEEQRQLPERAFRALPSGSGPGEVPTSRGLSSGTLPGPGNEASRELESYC
# protocolDescription: cell-based or functional assay
outcomeMeasure: hGIPR cAMP EC50 ratio
Please give the numeric answer without any surrounding text.

# count of solved cases: 2
{"binder": "XXEGTFTSDYSIXLDKKAQXAFVXYLIAGGPSSGAPPPS (D-Tyr1; Aib2; αMeL13; K17 conjugated to (2-[2-(2-Amino-ethoxy)-ethoxy]-acetyl)2-(γ-Glu)-CO-(CH2)18-CO2H; Aib20; D-Glu24; C-terminal amide (NH2))", "hGIPR cAMP EC50 ratio": 0.261}
{"binder": "XXEGTFTSDYSIXLDKKAQXAFIEXLIAGGPSSGAPPPS (D-Tyr1; Aib2; αMeL13; K17 conjugated to (2-[2-(2-Amino-ethoxy)-ethoxy]-acetyl)-(γ-Glu)-CO-(CH2)18-CO2H; Aib20; αMeY25; C-terminal amide (NH2))", "hGIPR cAMP EC50 ratio": 0.287}

Ask: Fill in the blank: the reported hGIPR cAMP EC50 ratio of XXEGTFTSDYSIXLDKKAQXEFIEXLIAGGPSSGAPPPS (D-Tyr1; Aib2; αMeL13; K17 conjugated to (2-[2-(2-Amino-ethoxy)-ethoxy]-acetyl)2-(γ-Glu)-CO-(CH2)16-CO2H; Aib20; αMeY25; C-terminal amide (NH2)) is ____.
Reply: 1.76

Ask: Also, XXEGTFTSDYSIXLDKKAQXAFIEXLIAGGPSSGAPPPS (D-Tyr1; Aib2; αMeL13; K17 conjugated to (2-[2-(2-Amino-ethoxy)-ethoxy]-acetyl)2-(γ-Glu)-CO-(CH2)18-CO2H; Aib20; αMeY25; C-terminal amide (NH2)) please.
Reply: 0.784

Ask: Also, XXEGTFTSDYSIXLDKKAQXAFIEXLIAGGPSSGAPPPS (D-Tyr1; Aib2; αMeL13; K17 conjugated to (2-[2-(2-Amino-ethoxy)-ethoxy]-acetyl)2-(γ-Glu)-CO-(CH2)16-CO2H; Aib20; αMeY25; C-terminal amide (NH2)) please.
Reply: 0.734

Ask: Also, XXEGTFTSDYSIXLDXKAQXEFIEXLIAGGPSSGAPPPS (D-Tyr1; Aib2; αMeL13; Orn16; K17 conjugated to (2-[2-(2-Amino-ethoxy)-ethoxy]-acetyl)2-(γ-Glu)-CO-(CH2)16-CO2H; Aib20; αMeY25; C-terminal amide (NH2)) please.
Reply: 1.13

Ask: Also, XXEGTFTSDYSIXLDXKAQXAFIEXLIAGGPSSGAPPPS (D-Tyr1; Aib2; αMeL13; Orn16; K17 conjugated to (2-[2-(2-Amino-ethoxy)-ethoxy]-acetyl)2-(γ-Glu)-CO-(CH2)18-CO2H; Aib20; αMeY25; C-terminal amide (NH2)) please.
Reply: 0.598

Ask: Also, XXEGTFTSDYSIXLDXKAQXEFIEXLIEGGPSSGAPPPS (D-Tyr1; Aib2; αMeL13; Orn16; K17 conjugated to (2-[2-(2-Amino-ethoxy)-ethoxy]-acetyl)2-(γ-Glu)-CO-(CH2)18-CO2H; Aib20; αMeY25; C-terminal amide (NH2)) please.
Reply: 0.374

Ask: Also, XXEGTFTSDYSIXLDXKAQXAFVXYLIAGGPSSGAPPPS (D-Tyr1; Aib2; αMeL13; Orn16; K17 conjugated to (2-[2-(2-Amino-ethoxy)-ethoxy]-acetyl)2-(γ-Glu)-CO-(CH2)18-CO2H; Aib20; D-Glu24; C-terminal amide (NH2)) please.
Reply: 0.347

Ask: Also, XXEGTFTSDYSIXLDXKAQXEFIEYLIAGGPSSG (D-Tyr1; Aib2; αMeL13; Orn16; K17 conjugated to (2-[2-(2-Amino-ethoxy)-ethoxy]-acetyl)2-(c-Glu)-CO-(CH2)18-CO2H ('c-Glu' as printed, presumably γ-Glu); Aib20; C-terminal amide (NH2)) please.
Reply: 0.704

Ask: Also, XXEGTFTSDYSIXLDXKAQXAFIXYLIAGGPSSGAPPPS (D-Tyr1; Aib2; αMeL13; Orn16; K17 conjugated to (2-[2-(2-Amino-ethoxy)-ethoxy]-acetyl)2-(γ-Glu)-CO-(CH2)16-CO2H; Aib20; C-terminal amide (NH2)) please.
Reply: 0.835

Ask: Also, XXEGTFTSDYSIXLDXKAQXEFIEYLIAGGPSSGAPPPS (D-Tyr1; Aib2; αMeL13; Orn16; K17 conjugated to (2-[2-(2-Amino-ethoxy)-ethoxy]-acetyl)-(γ-Glu)-CO-(CH2)18-CO2H; Aib20; C-terminal amide (NH2)) please.
Reply: 0.393

Ask: Also, XXEGTFTSDYSIXLDKKAQXEFIEXLIEGGPSSGAPPPS (D-Tyr1; Aib2; αMeL13; K17 conjugated to (2-[2-(2-Amino-ethoxy)-ethoxy]-acetyl)2-(γ-Glu)-CO-(CH2)18-CO2H; Aib20; αMeY25; C-terminal amide (NH2)) please.
Reply: 0.672

Origin of the recorded values: patent US20200024322A1
